The reported measurements were obtained from patent US6242494A.

molecular target: methionine aminopeptidase-2 (MetAP2) (Homo sapiens, UniProt P50579); construct: made in house; host or cells: insect cells, baculovirus system (secreted, purified from culture supernatant); test: Inhibition of MetAP2 enzyme activity (96-well, Met-Ala-Ser substrate, L-amino acid oxidase/peroxidase/ortho-dianisidine, 450 nm); assay type: biochemical; conditions: recombinant MetAP2 4 μg/mL, pH 7.4, Met-Ala-Ser substrate, 20 minutes; read-out: IC50
Sequence (P50579 whole entry): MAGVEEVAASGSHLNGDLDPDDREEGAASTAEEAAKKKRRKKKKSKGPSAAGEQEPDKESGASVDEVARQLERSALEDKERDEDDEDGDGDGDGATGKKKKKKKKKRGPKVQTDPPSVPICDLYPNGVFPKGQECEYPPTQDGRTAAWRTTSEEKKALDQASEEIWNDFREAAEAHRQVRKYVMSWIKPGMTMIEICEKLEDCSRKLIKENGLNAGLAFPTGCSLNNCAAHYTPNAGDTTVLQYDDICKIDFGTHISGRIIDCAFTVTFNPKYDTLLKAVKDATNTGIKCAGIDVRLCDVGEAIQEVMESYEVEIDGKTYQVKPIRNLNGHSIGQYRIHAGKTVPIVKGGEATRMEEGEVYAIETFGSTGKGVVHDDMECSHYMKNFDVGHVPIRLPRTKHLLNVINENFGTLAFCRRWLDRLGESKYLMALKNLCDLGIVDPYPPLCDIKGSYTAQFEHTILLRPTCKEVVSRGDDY
Endpoint Name: IC50

Item under review: CCSC(C)[C@H](NC(=O)OC(C)(C)C)C(O)C(=O)NC(=O)CCCc1ccccc1 (mixture of isomers) [Example 37] . Reported IC50? 16 µM

* * *

Target: methionine aminopeptidase-2 (MetAP2) (Homo sapiens, UniProt P50579)
Construct: made in house; host or cells: insect cells, baculovirus system (secreted, purified from culture supernatant)
Test: Inhibition of MetAP2 enzyme activity (96-well, Met-Ala-Ser substrate, L-amino acid oxidase/peroxidase/ortho-dianisidine, 450 nm)
Type: biochemical
Conditions: IC50, recombinant MetAP2 4 μg/mL, pH 7.4, Met-Ala-Ser substrate, 20 minutes
Protocol: The ability of compounds of the present invention to inhibit methionine aminopeptidase 2 was evaluated using the following assay. Assays for MetAP2 enzyme activity and MetAP2 inhibition were performed in 96-well microtiter plates. […] The absorbence at 450 nanometers was measured every 20 seconds over a period of twenty minutes using an automaic plate reader (Molecular Devices, CA, USA). The Vmax in mOD/min, calculated for each well was used to represent MetAP2 activity. […]
Structures can show the parent of a compound that is named as a salt.
Endpoint Name: pIC50
Notebook: values listed as pIC50 are -log10 of the concentration (mol/L).

Fill in the blank: the reported pIC50 of CCOC(=O)CCNC(=O)C(O)[C@H](N)Cc1ccccc1 (mixture of isomers) [Example 20, hydrochloride] is ____. 5.24

So what's the measured pIC50 for this one? C[C@H](NC(=O)C(O)[C@H](N)CC1CCCCC1)c1nc(C(=O)O)cs1 (stereo partly shown) [Example 75, hydrochloride] 5.03

Entry COc1cc(Cl)c(C)cc1NC(=O)C(O)[C@H](N)CC1CCCCC1 (mixture of isomers) [Example 176, hydrochloride] : reported pIC50 = ? 5.47

What pIC50 value was documented for this compound, N[C@H](CC1CCCCC1)C(O)C(=O)NCc1ccco1 (mixture of isomers) [Example 100, Hydrochloride] ? 5.23

* * *

molecular target: methionine aminopeptidase-2 (MetAP2) (Homo sapiens); construct: made in house; host or cells: insect cells, baculovirus system (secreted, purified from culture supernatant); test: Inhibition of MetAP2 enzyme activity (96-well, Met-Ala-Ser substrate, L-amino acid oxidase/peroxidase/ortho-dianisidine, 450 nm); format: biochemical; conditions: IC50, recombinant MetAP2 4 μg/mL, pH 7.4, Met-Ala-Ser substrate, 20 minutes
Structures can show the parent of a compound that is named as a salt.
Items are presented alongside their recorded pIC50.
Give only the number. pIC50 is defined as minus log10 of concentration in molar units.

See these solved cases before continuing.
1) C[C@H](NC(=O)C(O)[C@H](N)CC1CCCCC1)C(=O)Nc1cc([N+](=O)[O-])ccc1O (some centres unmarked) [Example 69, hydrochloride] | 5.28
2) COc1cccc(CNC(=O)C(O)[C@H](N)CC2CCCCC2)c1 (mixture of isomers) [Example 189, hydrochloride] | 5.82
3) CSCC[C@@H](N)C(O)C(=O)NCCCc1ccccc1 (some centres unmarked) [Example 6, hydrochloride] | 5.52
4) N[C@H](CC1CCCCC1)C(O)C(=O)N[C@@H](CO)C(=O)OCc1cccc([N+](=O)[O-])c1 (some centres unmarked) | 5.77
5) C[C@H](NC(=O)C(O)[C@H](N)CC1CCCCC1)C(=O)Nc1cc(-c2ccccc2)[nH]n1 (some centres unmarked) [Example 68, hydrochloride] | 5.42
6) CCNC(=O)[C@H](C)NC(=O)C(O)[C@@H](N)CCSC (some centres unmarked) [Example 2, hydrochloride] | 4.33

Reported pIC50 for methionine aminopeptidase-2 (MetAP2) (Homo sapiens), given C[C@H](NC(=O)C(O)[C@H](N)CC1CCCCC1)C(=O)OCc1ccccc1CS(=O)(=O)c1ccccc1 (some centres unmarked) [Example 91, Hydrochloride] ? 5.64

Item: N[C@H](CC1CCCCC1)C(O)C(=O)Nc1cccc(Cl)c1 (mixture of isomers) Test system: methionine aminopeptidase-2 (MetAP2) (Homo sapiens) Read-out: pIC50 Value: ? 6.28

For the record CCOC(=O)c1csc([C@H](C)NC(=O)C(O)[C@H](N)CC2CCCCC2)n1 (some centres unmarked) [Example 54, hydrochloride] , what value of pIC50 is listed for methionine aminopeptidase-2 (MetAP2) (Homo sapiens)? 5.59

Checklist item: pIC50 tested on methionine aminopeptidase-2 (MetAP2) (Homo sapiens), entry CC(C)(C)C1CCC(NC(=O)C(O)[C@H](N)CC2CCCCC2)CC1 (mixture of isomers) [Example 111, Hydrochloride] , value? 5.09

Lookup: pIC50 / methionine aminopeptidase-2 (MetAP2) (Homo sapiens) / N[C@H](CC1CCCCC1)C(O)C(=O)Nc1ccc(Oc2ccccc2)cc1 (mixture of isomers) [Example 185, hydrochloride] 5.74

# get_value(readout= pIC50, system= methionine aminopeptidase-2 (MetAP2) (Homo sapiens)) for CC(C)(C)c1ccc(CNC(=O)C(O)[C@H](N)CC2CCCCC2)cc1 (some centres unmarked) 5.41

Please tell me: pIC50 of N[C@H](CC1CCCCC1)C(O)C(=O)Nc1ccccc1OC(F)(F)F (some centres unmarked) , system methionine aminopeptidase-2 (MetAP2) (Homo sapiens)? 5.48

Test system methionine aminopeptidase-2 (MetAP2) (Homo sapiens); read-out pIC50; what value for N[C@H](CC1CCCCC1)C(O)C(=O)NCCc1ccc(F)cc1 (mixture of isomers) [Example 142, hydrochloride] ? 6.40

Write down the reported pIC50 of COC(=O)c1ccc(COC(=O)[C@H](C)NC(=O)C(O)[C@H](N)CC2CCCCC2)cc1 (some centres unmarked) [Example 94, Hydrochloride] , test system: methionine aminopeptidase-2 (MetAP2) (Homo sapiens). 6.04

For methionine aminopeptidase-2 (MetAP2) (Homo sapiens), provide pIC50 of CCOc1cccc(NC(=O)C(O)[C@H](N)CC2CCCCC2)c1 (mixture of isomers) [Example 224, Hydrochloride] please. 6.37

Lookup: pIC50 / methionine aminopeptidase-2 (MetAP2) (Homo sapiens) / N[C@H](CC1CCCCC1)C(O)C(=O)Nc1cccc(Oc2ccccc2)c1 (mixture of isomers) [Example 162, hydrochloride] 5.92

Entry CCOC(=O)[C@H](CO)NC(=O)C(O)[C@H](N)CCSCC (some centres unmarked) [Example 36, hydrochloride] , system methionine aminopeptidase-2 (MetAP2) (Homo sapiens): what pIC50 was measured? 6.85

Provide the documented pIC50 with methionine aminopeptidase-2 (MetAP2) (Homo sapiens) as the system for N[C@H](CC1CCCCC1)C(O)C(=O)NCc1cccc(C(F)(F)F)c1 (some centres unmarked) 5.80

Item: C[C@H](NC(=O)C(O)[C@H](N)CC1CCCCC1)c1cccc2ccccc12 (mixture of isomers) [Example 133, hydrochloride] Test system: methionine aminopeptidase-2 (MetAP2) (Homo sapiens) Read-out: pIC50 Value: ? 6.57

Given the entry CCOC(=O)C1CCN(C(=O)C(O)[C@H](N)CC2CCCCC2)CC1 (some centres unmarked) [Example 73, hydrochloride] , what pIC50 was observed with methionine aminopeptidase-2 (MetAP2) (Homo sapiens)? 5.17

API: value(readout=pIC50, system=methionine aminopeptidase-2 (MetAP2) (Homo sapiens)) for record CC(=O)OC[C@@H](C)NC(=O)C(O)[C@H](N)CC1CCCCC1 (some centres unmarked) 5.21

Tell me reported pIC50 for COc1ccccc1CCNC(=O)C(O)[C@H](N)CC1CCCCC1 (mixture of isomers) [Example 197, hydrochloride] , tested with methionine aminopeptidase-2 (MetAP2) (Homo sapiens). 6.24

Give the reported pIC50 for N[C@H](CC1CCCCC1)C(O)C(=O)NCCc1ccc(Cl)cc1 (mixture of isomers) [Example 198, hydrochloride] (system: methionine aminopeptidase-2 (MetAP2) (Homo sapiens)). 6.08

Record lookup: for methionine aminopeptidase-2 (MetAP2) (Homo sapiens), what pIC50 belongs to N[C@H](CC1CCCCC1)C(O)C(=O)NCCCn1ccnc1 (some centres unmarked) ? 4.52

Missing value: pIC50, methionine aminopeptidase-2 (MetAP2) (Homo sapiens), entry N[C@H](CC1CCCCC1)C(O)C(=O)NCc1cccc(Cl)c1 (mixture of isomers) [Example 188, hydrochloride] . Fill in? 5.80

Param readout= pIC50; system= methionine aminopeptidase-2 (MetAP2) (Homo sapiens); entry= COc1cc(CCNC(=O)C(O)[C@H](N)CC2CCCCC2)ccc1O (some centres unmarked) ; returns value. 5.82

Query pIC50 on methionine aminopeptidase-2 (MetAP2) (Homo sapiens) for CN(C)c1cccc2c(S(=O)(=O)NCCCCCNC(=O)C(O)[C@H](N)CC3CCCCC3)cccc12 (some centres unmarked) 5.57

Kindly state the measured pIC50 obtained for Cc1ccc(NC(=O)C(O)[C@H](N)CC2CCCCC2)cc1 (mixture of isomers) with methionine aminopeptidase-2 (MetAP2) (Homo sapiens). 6.06
